system-under-test: T1, huIgG1 monoFc tagged GALV gp70 protein (residues 42-474) (Gibbon ape leukemia virus, UniProt P21415 42-474)
T1 construct: also called gp70 (42-474)
T1 sequence: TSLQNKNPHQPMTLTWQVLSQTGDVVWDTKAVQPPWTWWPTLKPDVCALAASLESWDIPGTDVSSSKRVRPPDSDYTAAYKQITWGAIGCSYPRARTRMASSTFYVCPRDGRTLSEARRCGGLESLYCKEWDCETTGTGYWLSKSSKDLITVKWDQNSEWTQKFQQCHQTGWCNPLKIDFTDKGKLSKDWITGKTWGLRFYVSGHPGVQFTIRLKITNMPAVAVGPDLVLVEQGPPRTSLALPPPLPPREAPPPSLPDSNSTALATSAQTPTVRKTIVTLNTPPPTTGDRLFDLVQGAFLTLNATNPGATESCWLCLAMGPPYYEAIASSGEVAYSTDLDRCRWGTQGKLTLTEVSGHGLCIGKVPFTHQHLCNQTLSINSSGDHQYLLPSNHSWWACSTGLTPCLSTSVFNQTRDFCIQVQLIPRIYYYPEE
experimental-details: BLI Octet Red96; antibody on AMC biosensor, 100 nM monoFc-gp70(42-474) analyte
assay-endpoint: kon (M⁻¹ s⁻¹)
API: value field is a number in M⁻¹ s⁻¹; no unit string.

Returns the measured kon for the input binder. Input: 8G8 (antibody, V domains shown, Anti-GALV gp70; One id for the hybridoma supernatant and the recombinant murine IgG2a antibody; also called 8G8-HC2 / 8G8-LC2) VH: QVQLQQPGAELVRPGSSVKLSCKASGYTFTNYWMDWVKQRPGQGLEWIGNIYPSDSETHYNQNFKDKATLTVDKSSSTAYMQLSSLTSEDSAVYYCARDYYWGQGTTLTVSS VL: QAVVTQESALTTSPGETVTLTCRSSTGAVTRSNYANWVQEKPDHLFTGLIGGTNNRALGVPARFSGSLIGDKAALTITGAQTEDEAIYFCALWYSNHLVFGGGTKLTVLQ
328000
